System: central memory T cells
Assay name: Cultured IFN-γ ELISPOT after 10-day in vitro stimulation of PBMC, phase 1/2 colon cancer trial of OSE-2101
Type: in vivo, human
Condition: colon patient 607, Week 9
Measure: net SFC of vaccine positive CTL responses

Example entries and their recorded answers appear below.
Input: Find the recorded net SFC of vaccine positive CTL responses belonging to KLBPVQLWV [p53.139L2B3 A] and report it.
Output: 114.3 SFC per 50,000 cells

Input: Same question, KVAEIVHFL [MAGE3.112I5 A] this time
Output: 60.3 SFC per 50,000 cells

Input: How about this sequence: SMPPPGTRV [p53.149M2 A]
Output: —

Input: Item: IMIGHLVGV [CEA.691H5 A]
Output: 593.3 SFC per 50,000 cells

Input: // query: LLTFWNPPV [CEA.24V9 A]
Output: 196.7 SFC per 50,000 cells

Input: Request: KVFGSLAFV [HER2.369L2V9 A]
Output: 389.3 SFC per 50,000 cells

---
Input: So what does the record say about net SFC of vaccine positive CTL responses for YLSGADLNL [CEA.605D6 A] ?
Output: 72.7 SFC per 50,000 cells

Input: Another sequence to look at: YLQLVFGIEV [MAGE2.157 WT]
Output: 172.0 SFC per 50,000 cells
